Test system: NCI-H226 lung
Experiment: NCI-60 one-dose screen, 48 h (100 = growth as untreated, 0 = no growth, -100 = all killed)
Conditions: 10 µM unless noted
This is part of a sample that, as a whole, favours compounds with a hit. Of some 83,000 tested, about 20% had one in any assay.
Decision: growth >= 90% yields rule met, all other cases yield rule not met.

query: Answer whether growth of `Cc1cc(O)c2c(c1)C(=O)C(c1c(C)cc3c(c1O)C(=O)C=CC3=O)=CC2=O` is greater than or equal to 90%.
result: rule met

query: Then `CS(=O)(=O)c1ccc2c(c1)c1c(n2C(=O)c2ccc(Cl)cc2)CCCC1` ?
result: rule not met

query: Next up: `COc1cc(/C=N/n2cnc3oc(-c4ccccc4)cc3c2=N)cc(CN2CCN(C)CC2)c1O`
result: rule not met

query: And for CCN1C(=O)N(CC)C2C1NN=C1SC(c3ccccc3)=CC(=O)N12 (stereo not drawn) ?
result: rule not met

---

# growth per record follows
System: RPMI-8226 leukemia
Assay: NCI-60 one-dose screen, 48 h (100 = growth as untreated, 0 = no growth, -100 = all killed)
Details: 10 µM unless noted
About 83,000 compounds went through this panel and 20% of them were active in at least one assay; those are over-represented in the sample as a whole.
Please state the figure in %; there is no need to write the unit.

molecule-smiles	growth / %
N#C/C(=C\c1ccc(N2CCCCC2)cc1)C(=O)Nc1sc2c(c1C#N)CCC2	69.3

query: Item under review: `COCCOc1ccc(-c2csc(NC(C)=O)n2)cc1NS(=O)(=O)c1cccc2c(N(C)C)cccc12` . Reported growth?
result: 69.6

query: Also, `Cn1cc(-c2nn3c(=O)cc(-c4ccccc4)nc3s2)c2cc(F)ccc21` please.
result: 69.2

---

Test system: SK-OV-3 ovarian
Assay: NCI-60 one-dose screen, 48 h (100 = growth as untreated, 0 = no growth, -100 = all killed)
Conditions: 10 µM unless noted
This is part of a sample that, as a whole, favours compounds with a hit. Of some 83,000 tested, about 20% had one in any assay.
measurement-kind: growth (%)
The reply should contain only the number, in %.

compound	units-label	growth
CC1CCc2c(sc3nc(SCC(=O)N/N=C/c4cccc(O)c4O)n(-c4ccccc4)c(=O)c23)C1 (stereo unspecified)	%	107
Cc1nn(-c2ccc(Cl)cc2)c(C)c1N=Nc1ccc2oc(=O)ccc2c1	%	114
Nc1nc(N)c2c(n1)NC(c1ccc(Cl)cc1)CC(c1ccc(Nc3nc(NCCO)nc(Nc4ccc(Cl)cc4)n3)cc1)=N2 (stereo unspecified)	%	100
CCOC(=O)/C(F)=C/C1CC1C1CCCCC1 (stereo unspecified)	%	126
Cc1ccc(NC(=O)c2cc(/C=C/C(=O)NO)cc(C(F)(F)F)c2)cc1Nc1nccc(-c2cccnc2)n1	%	-38.3
O=C(Cn1cc(CN2C(=O)c3ccc([N+](=O)[O-])cc3C2=O)nn1)Nc1ccccc1Br	%	90.5
CS(=O)c1nccc(-c2c(-c3ccc(F)c(OCCc4ccc(F)cc4)c3)nc3sccn23)n1 (stereo unspecified)	%	105
Oc1ccc(CSc2nnc(-c3ccc(Br)cc3)n2-c2ccccc2)c2cccnc12	%	23.3
COc1ccccc1N1CCN(C2=NN=C(c3cccc(Cl)c3)c3ccccc3C2)CC1	%	13.7
C#CCOc1ccc(C(Nc2ccc(Cl)cc2)c2nnnn2C2CCCCC2)cc1 (stereo unspecified)	%	98.2

query: Lab note: need growth for `CS(=O)(=O)c1ccc(-c2nn(-c3ccccc3)cc2/C=C/C(=O)c2ccc(Br)cc2)cc1` on SK-OV-3 ovarian, anyone have it?
result: 107

query: Then what about the compound `Cc1cn(-c2cc(NC(=O)c3cncc(C#Cc4cnc5ccc(O[C@@H]6CCOC6)nn45)c3)cc(C(F)(F)F)c2)cn1` ?
result: -22.3

query: Also need `NC(=O)c1c(NC(=O)c2cccc(C(F)(F)F)c2F)sc2c1CCC(=O)C2` , thanks.
result: 77.2

query: Same question, CC(C)=CCC[C@](C)(O)[C@H]1CC[C@]2(C)[C@@H]1CC[C@@H]1[C@@]3(C)CCC(NC(=O)c4ccccc4C(=O)O)C(C)(C)[C@@H]3CC[C@]12C (stereo partly specified) this time
result: 104

query: Same read-out for `Oc1ccc(CSc2nnc(-c3ccc(Cl)cc3)o2)c2cccnc12` ?
result: 20.3

query: Then `Cc1cn(-c2cc(NC(=O)c3cncc(C#Cc4cnc5ccc(OCCCS(C)(=O)=O)nn45)c3)cc(C(F)(F)F)c2)cn1` ?
result: 104
